Assay: Pharmacokinetics in Sprague Dawley rats, repeat oral administration for 15 days
Type: in vivo, rat
Settings: female, Sprague-Dawley, rat, plasma, po, 10 mg/kg, SD rats, oral gavage once daily, Day 15, 10 mg/kg, Female, n = 4
reported property: Tmax (h)

> print(dat)
                                smiles.code  unit.abbrev  data.value
1  N#Cc1ccc(N2CCC[C@@H]2[C@@H](O)C(F)(F)F)cc1C(F)(F)F            h           2

* * *

Test: Pharmacokinetics in Sprague Dawley rats, repeat oral administration for 15 days
Type: in vivo, rat
Conditions: female, Sprague-Dawley, rat, plasma, po, 1 mg/kg, SD rats, oral gavage once daily, Day 15, 1 mg/kg, Female
reported property: Tmax (h)

> print(dat)
                                smiles.code  reported.property  data.value
1  N#Cc1ccc(N2CCC[C@@H]2[C@@H](O)C(F)(F)F)cc1C(F)(F)F               Tmax         1.8
